The compounds below have reported Ki for C-X-C chemokine receptor type 3 (Homo sapiens, UniProt P49682).
PROPERTY NAME: Ki (nM)

• CC1(C)[C@@H]2CC[C@@]1(C)[C@H](NC1CCN(Cc3cc(F)cc(C(F)(F)F)c3)CC1)C2 (relative stereo) = 3980
• Clc1ccc(CN2CCC(NC34CC5CC(CC(C5)C3)C4)CC2)cc1 = 1000
• CCOC(=O)C1CN(Cc2ccc(Cl)cc2F)CCC1NC1C2CC3CC(C2)CC1C3 (stereo in doubt; 32) = 5010
• CN(C1CCN(Cc2ccc(Cl)cc2F)CC1)[C@H]1C[C@H]2CC[C@]1(C)C2(C)C (relative stereo) = 1260
• COc1cccc(CN2CCC(N[C@@H]3C[C@H]4CC[C@]3(C)C4(C)C)CC2)c1 (relative stereo) = 7940
• CC1(C)[C@@H]2CC[C@@]1(C)[C@H](NC1CCN(Cc3ccc(Cl)cc3F)CC1)C2 (relative stereo) = 398
• Clc1ccc(CN2CCC(NC3C4CC5CC(C4)CC3C5)CC2)cc1 (stereo not drawn) = 398
• Fc1cc(Cl)ccc1CN1CCC(NCC2CCCCC2)CC1 = 3980

----------
Biological target: C-X-C chemokine receptor type 3 (Homo sapiens, UniProt P49682)
Sequence (P49682 whole entry): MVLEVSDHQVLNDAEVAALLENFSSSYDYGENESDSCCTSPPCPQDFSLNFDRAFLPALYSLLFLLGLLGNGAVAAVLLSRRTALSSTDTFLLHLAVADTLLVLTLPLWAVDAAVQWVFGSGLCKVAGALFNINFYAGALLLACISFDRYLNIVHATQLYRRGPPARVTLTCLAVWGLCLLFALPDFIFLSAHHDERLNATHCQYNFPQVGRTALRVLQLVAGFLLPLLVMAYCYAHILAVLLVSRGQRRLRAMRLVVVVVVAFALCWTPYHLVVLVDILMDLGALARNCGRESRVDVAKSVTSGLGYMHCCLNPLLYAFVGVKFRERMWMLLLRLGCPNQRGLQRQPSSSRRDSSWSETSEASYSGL
pKi: −log10 of the molar value.
Below: a set of entries, each annotated with reported pKi.
PROPERTY NAME: pKi

• CC1(C)[C@@H]2CC[C@@]1(C)[C@H](NC1CCN(Cc3ccc(F)c(C(F)(F)F)c3)CC1)C2 (relative stereo) = 5.60
• CC1(C)[C@@H]2CC[C@@]1(C)[C@H](NC1CCN(Cc3ccccn3)CC1)C2 (relative stereo) = 5.10

----------
Entries below carry reported Ki on C-X-C chemokine receptor type 3 (Homo sapiens).
PROPERTY NAME: Ki (µM)

• COC(=O)c1ccc(CN2CCC(N[C@@H]3C[C@H]4CC[C@]3(C)C4(C)C)CC2)cc1 = 3.16
• Fc1cc(Cl)ccc1CN1CCC(NC/C2=C/CCCCCC2)CC1 = 2.51
• CC(c1ccc(Cl)cc1F)N1CCC(NC2C3CC4CC(C3)CC2C4)CC1 (stereo not given) = 5.01
• Fc1cc(Cl)ccc1CN1CCC(NC2CCCCC2)CC1 = 5.01
• Fc1cc(Cl)ccc1CN1CCC(NCC23CC4CC(CC(C4)C2)C3)CC1 = 0.501
• Fc1cc(Cl)ccc1CN1CCC(N2CCc3ccccc3C2)CC1 = 5.01
• CC1(C)[C@@H]2CC[C@@]1(C)[C@H](NC1CCN(Cc3ccc(N)cc3)CC1)C2 (relative stereo) = 6.31
• Fc1cc(Cl)ccc1CNC1CCN(C2C3CC4CC(C3)CC2C4)CC1 (stereo not given) = 3.98
